Molecular target: T1, FL9 self-peptide (source protein not named) peptide on Qa-1b (mouse)
T1 peptide: FYAEATPML
Experiment: multimer staining
Property Name: binding result

INSERT INTO assay_data (binder, val) VALUES
  ('FL9.26 (TCR, V domains shown) Valpha: AQSVTQPDARVTVSEGASLQLRCKYSYFGTPYLFWYVQYPRQGLQLLLKYYPGDPVVQGVNGFEAEFSKSNSSFHLRKASVHWSDWAVYFCAVSTGGYKVVFGSGTRLLVSP Vbeta: NSGVVQSPRYIIKGKGERSILKCIPISGHLSVAWYQQTQGQELKFFIQHYDKMERDKGNLPSRFSVQQFDDYHSEMNMSALELEDSAVYFCASSHRSFSGNTLYFGEGSRLIVV', 'recognises'),
  ('FL9.30 (TCR, V domains shown) Valpha: AQSVTQPDARVTVSEGASLQLRCKYSYFGTPYLFWYVQYPRQGLQLLLKYYPGDPVVQGVNGFEAEFSKSNSSFHLRKASVHWSDWAVYFCAVSSNNAGAKLTFGGGTRLTVRP Vbeta: DSGVVQSPRHIIKEKGGRSVLTCIPISGHSNVVWYQQTLGKELKFLIQHYEKVERDKGFLPSRFSVQQFDDYHSEMNMSALELEDSAMYFCASSRRPASAETLYFGSGTRLTVL', 'recognises');
